Hello, the source for this data is ChEMBL document CHEMBL1122747, in case you need it.

test system: P388; assay: In vivo tumor cell selectivity (ILSmax values)for percentage increase in life span of treated animals over that of P388 tumor bearing untreated control animals; assay type: functional, Mus musculus
Each entry below lists one item and its recorded Activity value.

{"SMILES_CODE": "COP(=O)(Nc1ccc(Nc2c3ccccc3nc3ccccc23)cc1)OC", "UNITS": "%", "Activity": 107}
{"SMILES_CODE": "CNC(=O)c1cccc2c(Nc3ccc(NS(C)(=O)=O)cc3OC)c3ccccc3nc12", "UNITS": "%", "Activity": 127}
{"SMILES_CODE": "CS(=O)(=O)Nc1ccc(Nc2c3ccccc3nc3cc(N)ccc23)cc1", "UNITS": "%", "Activity": 67}
{"SMILES_CODE": "COP(=O)(Nc1ccc(Nc2c3ccccc3nc3cc(Cl)ccc23)cc1)OC", "UNITS": "%", "Activity": 62}
{"SMILES_CODE": "CNC(=O)c1cccc2c(Nc3ccc(NS(C)(=O)=O)cc3)c3ccccc3nc12", "UNITS": "%", "Activity": 41}
{"SMILES_CODE": "COc1cc(NS(C)(=O)=O)ccc1Nc1c2ccccc2nc2cc(Br)ccc12", "UNITS": "%", "Activity": 133}
{"SMILES_CODE": "CNC(=O)c1cccc2c(Nc3ccc(NP(=O)(OC)OC)cc3)c3ccccc3nc12", "UNITS": "%", "Activity": 56}

---

test system: P388; assay: In vivo tumor cell selectivity (ILSmax values)for percentage increase in life span of treated animals over that of P388 tumor bearing untreated control animals; format: functional, Mus musculus
Definition: the class of an entry is the range in lower range: < 50%; middle range: ≥ 50% and < 90%; upper range: ≥ 90% that contains its Activity.

{"SMILES_CODE": "CS(=O)(=O)Nc1ccc(Nc2c3ccccc3nc3ccccc23)cc1", "CLASS_LABEL": "upper range"}
{"SMILES_CODE": "CS(=O)(=O)Nc1ccc(Nc2c3ccccc3nc3cc([N+](=O)[O-])ccc23)cc1", "CLASS_LABEL": "lower range"}
{"SMILES_CODE": "Cc1ccc2nc3ccccc3c(Nc3ccc(NS(C)(=O)=O)cc3)c2c1", "CLASS_LABEL": "lower range"}
{"SMILES_CODE": "COc1cc(NS(C)(=O)=O)ccc1Nc1c2ccccc2nc2ccc(C)cc12", "CLASS_LABEL": "lower range"}
{"SMILES_CODE": "COc1cccc2c(Nc3ccc(NS(C)(=O)=O)cc3)c3ccccc3nc12", "CLASS_LABEL": "middle range"}
{"SMILES_CODE": "COP(=O)(Nc1ccc(Nc2c3ccccc3nc3cc(C)ccc23)cc1)OC", "CLASS_LABEL": "middle range"}
{"SMILES_CODE": "CS(=O)(=O)Nc1ccc(Nc2c3ccccc3nc3cc(Cl)ccc23)cc1", "CLASS_LABEL": "middle range"}
{"SMILES_CODE": "COc1cc(NS(C)(=O)=O)ccc1Nc1c2ccccc2nc2c(C)cccc12", "CLASS_LABEL": "upper range"}
{"SMILES_CODE": "COc1cc(NS(C)(=O)=O)ccc1Nc1c2ccccc2nc2cc(Cl)ccc12", "CLASS_LABEL": "upper range"}

---

test: Binding affinity towards poly[d(A-T)] (fluorometric method); type: ADME
MEASURED_PROPERTY: Log K

{"MOLECULE": "COc1cc(NP(=O)(OC)OC)ccc1Nc1c2ccccc2nc2ccccc12", "MEASURED_PROPERTY": "Log K", "DATA_VALUE": 5.64}
{"MOLECULE": "CNC(=O)c1cccc2c(Nc3ccc(NP(=O)(OC)OC)cc3)c3ccccc3nc12", "MEASURED_PROPERTY": "Log K", "DATA_VALUE": 6.46}
{"MOLECULE": "COP(=O)(Nc1ccc(Nc2c3ccccc3nc3cc(S(C)(=O)=O)ccc23)cc1)OC", "MEASURED_PROPERTY": "Log K", "DATA_VALUE": 5.63}
{"MOLECULE": "COc1cc(NP(=O)(OC)OC)ccc1Nc1c2ccccc2nc2c(OC)cccc12", "MEASURED_PROPERTY": "Log K", "DATA_VALUE": 6.09}
{"MOLECULE": "COc1cccc2c(Nc3ccc(NS(C)(=O)=O)cc3)c3ccccc3nc12", "MEASURED_PROPERTY": "Log K", "DATA_VALUE": 6.24}
{"MOLECULE": "COc1cc(NS(C)(=O)=O)ccc1Nc1c2ccccc2nc2cc(Br)ccc12", "MEASURED_PROPERTY": "Log K", "DATA_VALUE": 6.29}
{"MOLECULE": "COP(=O)(Nc1ccc(Nc2c3ccccc3nc3ccc(Cl)cc23)cc1)OC", "MEASURED_PROPERTY": "Log K", "DATA_VALUE": 6.17}
{"MOLECULE": "COc1cc(NP(=O)(OC)OC)ccc1Nc1c2ccccc2nc2cc(Br)ccc12", "MEASURED_PROPERTY": "Log K", "DATA_VALUE": 6.44}
{"MOLECULE": "Cc1cccc2c(Nc3ccc(NS(C)(=O)=O)cc3)c3ccccc3nc12", "MEASURED_PROPERTY": "Log K", "DATA_VALUE": 6.52}
{"MOLECULE": "CNC(=O)c1cccc2c(Nc3ccc(NS(C)(=O)=O)cc3OC)c3ccccc3nc12", "MEASURED_PROPERTY": "Log K", "DATA_VALUE": 5.54}
{"MOLECULE": "COP(=O)(Nc1ccc(Nc2c3ccccc3nc3ccc(C)cc23)cc1)OC", "MEASURED_PROPERTY": "Log K", "DATA_VALUE": 6.09}
{"MOLECULE": "Cc1ccc2c(Nc3ccc(NS(C)(=O)=O)cc3)c3ccccc3nc2c1", "MEASURED_PROPERTY": "Log K", "DATA_VALUE": 6.41}
{"MOLECULE": "Cc1ccc2nc3ccccc3c(Nc3ccc(NS(C)(=O)=O)cc3)c2c1", "MEASURED_PROPERTY": "Log K", "DATA_VALUE": 5.7}
{"MOLECULE": "COc1cc(NS(C)(=O)=O)ccc1Nc1c2ccccc2nc2ccc(C)cc12", "MEASURED_PROPERTY": "Log K", "DATA_VALUE": 5.35}
{"MOLECULE": "COP(=O)(Nc1ccc(Nc2c3ccccc3nc3cc([N+](=O)[O-])ccc23)cc1)OC", "MEASURED_PROPERTY": "Log K", "DATA_VALUE": 6.73}
{"MOLECULE": "COc1cc(NS(C)(=O)=O)ccc1Nc1c2ccccc2nc2cc(Cl)ccc12", "MEASURED_PROPERTY": "Log K", "DATA_VALUE": 6.06}
{"MOLECULE": "CNC(=O)c1cccc2c(Nc3ccc(NS(C)(=O)=O)cc3)c3ccccc3nc12", "MEASURED_PROPERTY": "Log K", "DATA_VALUE": 6.22}
{"MOLECULE": "COc1cccc2c(Nc3ccc(NP(=O)(OC)OC)cc3)c3ccccc3nc12", "MEASURED_PROPERTY": "Log K", "DATA_VALUE": 6.53}
{"MOLECULE": "CNC(=O)c1cccc2c(Nc3ccc(NP(=O)(OC)OC)cc3OC)c3ccccc3nc12", "MEASURED_PROPERTY": "Log K", "DATA_VALUE": 5.94}
{"MOLECULE": "COP(=O)(Nc1ccc(Nc2c3ccccc3nc3cc(Cl)ccc23)cc1)OC", "MEASURED_PROPERTY": "Log K", "DATA_VALUE": 7}
{"MOLECULE": "CS(=O)(=O)Nc1ccc(Nc2c3ccccc3nc3cc(Br)ccc23)cc1", "MEASURED_PROPERTY": "Log K", "DATA_VALUE": 6.93}
{"MOLECULE": "CS(=O)(=O)Nc1ccc(Nc2c3ccccc3nc3cc([N+](=O)[O-])ccc23)cc1", "MEASURED_PROPERTY": "Log K", "DATA_VALUE": 6.51}
{"MOLECULE": "COc1cc(NS(C)(=O)=O)ccc1Nc1c2ccccc2nc2ccccc12 [AMSACRINE]", "MEASURED_PROPERTY": "Log K", "DATA_VALUE": 5.57}
{"MOLECULE": "COP(=O)(Nc1ccc(Nc2c3ccccc3nc3c(C)cccc23)cc1)OC", "MEASURED_PROPERTY": "Log K", "DATA_VALUE": 6.75}
{"MOLECULE": "COc1cc(NP(=O)(OC)OC)ccc1Nc1c2ccccc2nc2ccc(C)cc12", "MEASURED_PROPERTY": "Log K", "DATA_VALUE": 5.28}
{"MOLECULE": "COc1cc(NP(=O)(OC)OC)ccc1Nc1c2ccccc2nc2cc(Cl)ccc12", "MEASURED_PROPERTY": "Log K", "DATA_VALUE": 6.4}
{"MOLECULE": "CS(=O)(=O)Nc1ccc(Nc2c3ccccc3nc3ccc(Cl)cc23)cc1", "MEASURED_PROPERTY": "Log K", "DATA_VALUE": 5.62}
{"MOLECULE": "COc1cc(NS(C)(=O)=O)ccc1Nc1c2ccccc2nc2c(C)cccc12", "MEASURED_PROPERTY": "Log K", "DATA_VALUE": 6.03}
{"MOLECULE": "COP(=O)(Nc1ccc(Nc2c3ccccc3nc3ccccc23)cc1)OC", "MEASURED_PROPERTY": "Log K", "DATA_VALUE": 6.26}
{"MOLECULE": "COP(=O)(Nc1ccc(Nc2c3ccccc3nc3cc(Br)ccc23)cc1)OC", "MEASURED_PROPERTY": "Log K", "DATA_VALUE": 6.56}
{"MOLECULE": "COc1ccc2nc3ccccc3c(Nc3ccc(NP(=O)(OC)OC)cc3)c2c1", "MEASURED_PROPERTY": "Log K", "DATA_VALUE": 6.25}
{"MOLECULE": "CS(=O)(=O)Nc1ccc(Nc2c3ccccc3nc3cc(S(C)(=O)=O)ccc23)cc1", "MEASURED_PROPERTY": "Log K", "DATA_VALUE": 5.3}
{"MOLECULE": "COc1ccc2nc3ccccc3c(Nc3ccc(NS(C)(=O)=O)cc3)c2c1", "MEASURED_PROPERTY": "Log K", "DATA_VALUE": 6}
{"MOLECULE": "CS(=O)(=O)Nc1ccc(Nc2c3ccccc3nc3cc(Cl)ccc23)cc1", "MEASURED_PROPERTY": "Log K", "DATA_VALUE": 6.89}
{"MOLECULE": "COP(=O)(Nc1ccc(Nc2c3ccccc3nc3cc(N)ccc23)cc1)OC", "MEASURED_PROPERTY": "Log K", "DATA_VALUE": 6.9}
{"MOLECULE": "COc1cc(NP(=O)(OC)OC)ccc1Nc1c2ccccc2nc2c(C)cccc12", "MEASURED_PROPERTY": "Log K", "DATA_VALUE": 6.16}
{"MOLECULE": "CS(=O)(=O)Nc1ccc(Nc2c3ccccc3nc3cc(N)ccc23)cc1", "MEASURED_PROPERTY": "Log K", "DATA_VALUE": 6.82}
{"MOLECULE": "COc1cc(NS(C)(=O)=O)ccc1Nc1c2ccccc2nc2c(OC)cccc12", "MEASURED_PROPERTY": "Log K", "DATA_VALUE": 5.94}
{"MOLECULE": "COP(=O)(Nc1ccc(Nc2c3ccccc3nc3cc(C)ccc23)cc1)OC", "MEASURED_PROPERTY": "Log K", "DATA_VALUE": 6.77}
